- target-system: AMP-activated protein kinase, AMPK (Homo sapiens) (UniProt P54646+O43741+P54619+Q9UGJ0+Q9Y478+Q13131+Q9UGI9)
- protocol-description: AMP-dependent Kinase enzyme assay. An in vitro enzyme assay that detects ADP turnover that is directly proportional to AMPK activity. This uses naive AMPK that is activated during the assay with MK-8722
- Type: functional
- Parameters: scale not given: direction of the effect not stated beside the values
- applied-conditions: 30 µM
reported-metric: Percent Effect (%)
Numeric answer only, unit % assumed.

1) O=C(c1ccccn1)N1Cc2nccn2CC(COc2cccnc2)C1 (stereo unspecified); 0.132
2) CCn1cc(NC(=O)NCC(O)CN2CCc3ccccc3C2)cn1 (stereo unspecified); -8.59
3) CCc1nc(C)c([C@H]2CN(C)C[C@@H]2C(=O)NCCc2cnccn2)[nH]1; 3.09
4) Cc1ccc(CC(=O)N2Cc3nccn3CC(CN(C)C)C2)cc1 (stereo unspecified); -4.31
5) CC(C)C(=O)N1CCCC(c2cc(C(F)F)n3ncnc3n2)C1 (stereo unspecified); 6.16

Input: I'd like to know its Percent Effect. The compound in question is `CCn1cnnc1C1CCN(C(=O)c2ccc3cc[nH]c3c2)CC1`
Output: 11.4

Input: I'd like to know its Percent Effect. The compound in question is CC(NC(=O)N(C)Cc1ccsc1)c1ccc2c(c1)NC(=O)CO2 (stereo unspecified)
Output: 0.427

Input: I'd like to know its Percent Effect. The compound in question is Cc1cc(C(=O)NCCN2CCCC(C)C2)nn1C (stereo unspecified)
Output: -3.57

Input: I'd like to know its Percent Effect. The compound in question is CCOCC(O)CN1CCN(C(=O)c2cccnc2OC)CC1 (stereo unspecified)
Output: 4.2

Input: I'd like to know its Percent Effect. The compound in question is `O=C(CCc1ccccc1)N1CCn2cc(Cn3cncn3)nc2C1`
Output: 5.15

Input: I'd like to know its Percent Effect. The compound in question is `CC(=O)NCCc1cc(N2CCN(C(C)=O)CC2)nc(C2CC2)n1`
Output: 10.3

---

- target-system: Ubiquitin-activating enzyme e1, putative (Leishmania donovani (strain BPK282A1))
- protocol-description: Leishmania donovani Ubiquitin Activating Enzyme (LdE1)
- Assay type: functional
- Design: scale not given: direction of the effect not stated beside the values
- applied-conditions: 30 µM
Entries with a potency or affinity are not part of this list.
Some molecules, each annotated with its measured Percent Effect.
Numeric answer only, unit % assumed.

Before answering, review these 3 worked examples.
1. COCc1noc(-c2ccc(N3CCCCC3CO)nc2)n1 (configuration not stated); -5.41
2. Cc1ccc(-c2nnc(CN3CCOC(Cn4cccn4)C3)o2)cc1 (configuration not stated); 10.1
3. CNCC(=O)N1CC(c2cc(Nc3ncccn3)nc(C)n2)C1; 10.7

Input: I'd like to know its Percent Effect. The molecule in question is `Cn1ccnc1-c1cccc(NC(=O)NCCN2CCOCC2)c1`
Output: 15.3

---

- target-system: Chromo domain-containing protein 1 (Saccharomyces cerevisiae (strain ATCC 204508 / S288c) (Baker's yeast)) (UniProt P32657)
- Sequence (P32657 whole entry, the tested form may be a part): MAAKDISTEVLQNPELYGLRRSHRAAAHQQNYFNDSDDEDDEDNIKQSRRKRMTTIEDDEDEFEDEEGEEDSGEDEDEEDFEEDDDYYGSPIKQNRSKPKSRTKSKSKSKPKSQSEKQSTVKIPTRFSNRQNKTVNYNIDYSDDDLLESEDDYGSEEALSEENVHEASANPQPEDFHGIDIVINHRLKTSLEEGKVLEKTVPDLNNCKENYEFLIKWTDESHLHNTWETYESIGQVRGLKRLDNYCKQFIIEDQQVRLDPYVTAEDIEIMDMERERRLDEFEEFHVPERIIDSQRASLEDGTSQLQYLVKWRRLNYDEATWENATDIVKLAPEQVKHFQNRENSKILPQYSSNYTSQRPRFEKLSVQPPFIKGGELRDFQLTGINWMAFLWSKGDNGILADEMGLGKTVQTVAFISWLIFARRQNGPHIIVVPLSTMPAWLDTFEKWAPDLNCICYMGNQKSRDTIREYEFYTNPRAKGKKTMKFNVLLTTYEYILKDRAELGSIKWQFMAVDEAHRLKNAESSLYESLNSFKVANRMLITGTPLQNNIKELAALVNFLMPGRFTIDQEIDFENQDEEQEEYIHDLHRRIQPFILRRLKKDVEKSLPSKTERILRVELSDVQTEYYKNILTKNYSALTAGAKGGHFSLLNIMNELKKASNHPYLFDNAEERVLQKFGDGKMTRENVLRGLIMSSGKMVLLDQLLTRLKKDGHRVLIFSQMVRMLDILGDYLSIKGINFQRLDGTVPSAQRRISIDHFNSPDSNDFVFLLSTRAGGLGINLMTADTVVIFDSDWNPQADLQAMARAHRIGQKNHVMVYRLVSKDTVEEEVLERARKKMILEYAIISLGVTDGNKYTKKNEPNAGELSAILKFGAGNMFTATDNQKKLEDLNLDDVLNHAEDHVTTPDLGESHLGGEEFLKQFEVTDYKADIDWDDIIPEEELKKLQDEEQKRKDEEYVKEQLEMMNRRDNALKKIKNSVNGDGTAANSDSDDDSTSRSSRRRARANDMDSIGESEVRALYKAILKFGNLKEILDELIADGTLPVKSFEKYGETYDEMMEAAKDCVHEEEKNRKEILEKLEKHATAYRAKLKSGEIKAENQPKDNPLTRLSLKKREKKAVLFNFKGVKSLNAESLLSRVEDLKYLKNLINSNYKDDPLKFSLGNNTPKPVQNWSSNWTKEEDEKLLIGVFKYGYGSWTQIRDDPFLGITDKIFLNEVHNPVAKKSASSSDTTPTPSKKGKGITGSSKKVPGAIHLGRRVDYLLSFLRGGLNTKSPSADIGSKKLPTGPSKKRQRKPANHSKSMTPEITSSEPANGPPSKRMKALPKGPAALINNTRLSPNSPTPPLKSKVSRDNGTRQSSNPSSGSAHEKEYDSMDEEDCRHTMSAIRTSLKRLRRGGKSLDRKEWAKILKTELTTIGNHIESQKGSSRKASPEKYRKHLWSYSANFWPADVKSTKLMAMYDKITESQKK
- protocol-description: ScCHD-1 Enzyme Inhibition Assay; also: in the data most compounds retested in dose-response had high values
- Format: functional
- Parameters: scale not given: direction of the effect not stated beside the values
- applied-conditions: 30 µM
Some compounds, each annotated with its measured Percent Effect.
Numeric answer only, unit % assumed.

1) Cc1ccc(C(=O)N2CCC3(CC2)CC(N2CCCC2)C3)cc1; -4.42
2) CCNc1cc2c(nn1)CCN(C(=O)c1cccc3c1OCCO3)C2; -10.8
3) CCSc1cc(C(=O)NCc2ccccc2O)ccn1; -5.04

Input: I'd like to know its Percent Effect. The compound in question is `Cc1cccc(OCCC(=O)N(C)CCNS(C)(=O)=O)c1C`
Output: -5.08

Input: I'd like to know its Percent Effect. The compound in question is `COCCN1C(=O)CCC12CCN(C(=O)NC(C)C)CC2`
Output: -3.15

Input: I'd like to know its Percent Effect. The compound in question is CC1CCCN(Cc2coc(-c3cccc(F)c3)n2)C1 (configuration not stated)
Output: 0.197

Input: I'd like to know its Percent Effect. The compound in question is `CN1CCc2onc(CNc3ncccn3)c2C1`
Output: -6.01

Input: I'd like to know its Percent Effect. The compound in question is c1ccc(OCc2ccncc2)c(CNC2CCc3ncnn3C2)c1 (configuration not stated)
Output: -0.669

Origin of measurements: ChEMBL document CHEMBL3988442
